test-description: Lipophilicity log P of the compound
Type: physicochemical
assay-conditions: octanol/water
outcome-measure: logP

{"molecule": "CS(=O)(=O)CCNCc1ccc(-c2ccc3ncnc(Nc4ccc(OCc5cccc(F)c5)c(Cl)c4)c3c2)o1.Cc1ccc(S(=O)(=O)O)cc1.Cc1ccc(S(=O)(=O)O)cc1.O [LAPATINIB DITOSYLATE]", "logP": 6.67}
{"molecule": "CCN1CCN(CCCC#Cc2c(C)ncnc2Nc2ccc(OCc3cccc(F)c3)c(Cl)c2)CC1", "logP": 6.23}
{"molecule": "Cc1ncnc(Nc2ccc(OCc3cccc(F)c3)c(Cl)c2)c1/C=C(\\F)C(=O)NCCN1CCCC1", "logP": 5.98}
{"molecule": "Cc1ncnc(Nc2ccc(OCc3cccc(F)c3)c(Cl)c2)c1C#Cc1ccc(CN2CCOCC2)cc1", "logP": 6.96}
{"molecule": "Cc1ncnc(Nc2ccc(OCc3cccc(F)c3)c(Cl)c2)c1/C=C/c1ccc(CN2CCOCC2)cc1", "logP": 7.73}

* * *

test-description: Aqueous solubility of the compound at pH 6.8
Format: physicochemical
assay-conditions: aqueous, read-out: solubility
outcome-measure: solubility

{"record-smiles": "Cc1ncnc(Nc2ccc(OCc3cccc(F)c3)c(Cl)c2)c1/C=C(\\F)C(=O)NCCN1CCCC1", "solubility": "> 50 µM"}
{"record-smiles": "Cc1ncnc(Nc2ccc(OCc3cccc(F)c3)c(Cl)c2)c1C#Cc1ccc(CN2CCOCC2)cc1", "solubility": "> 50 µM"}
{"record-smiles": "CCN1CCN(CCCC#Cc2c(C)ncnc2Nc2ccc(OCc3cccc(F)c3)c(Cl)c2)CC1", "solubility": "> 50 µM"}

With those in mind, consider the next compound.
Value of measured solubility for the entry `Cc1ncnc(Nc2ccc(OCc3cccc(F)c3)c(Cl)c2)c1/C=C/c1ccc(CN2CCOCC2)cc1.Cl` : 2 µM
